- method description: Stability of compound in human CEM/0 cell extract assessed as half life by RP18-HPLC analysis
- Assay type: ADME, tissue-based, CCRF-CEM
metric: half-life (h)
Note: unit h is implicit; provide only the numeric part.

Prompt: May I ask what half-life has been recorded for CCCCCCCCC(=O)Oc1ccc(COP(=O)(OCc2ccc(OC(=O)CCCCCCCC)cc2)OP(=O)(O)OP(=O)(O)OC[C@@H]2C=C[C@H](n3cc(C)c(=O)[nH]c3=O)O2)cc1 ?
Completion: 2.5

Prompt: Further, for CCCCCCCCCCCCCCCCCC(=O)Oc1ccc(COP(=O)(OCc2ccc(C(=O)CCCCCCCCC)cc2)OP(=O)(O)OP(=O)(O)OC[C@@H]2C=C[C@H](n3cc(C)c(=O)[nH]c3=O)O2)cc1 (stereo partly drawn) ?
Completion: 7.8

Prompt: And then CCCCCCCCCCCCCCCCCC(=O)Oc1ccc(COP(=O)(OCc2ccc(C(=O)CCCCCCCCCCCCCCCCC)cc2)OP(=O)(O)OP(=O)(O)OC[C@@H]2C=C[C@H](n3cc(C)c(=O)[nH]c3=O)O2)cc1 (stereo partly drawn) , what is it?
Completion: 2.1

Prompt: How about this compound: CCCCCCCCCC(=O)c1ccc(COP(=O)(OCc2ccc(OC(=O)CCCC)cc2)OP(=O)(O)OP(=O)(O)OC[C@@H]2C=C[C@H](n3cc(C)c(=O)[nH]c3=O)O2)cc1 (stereo partly drawn)
Completion: 1.1

Prompt: Also CCCCCCCCCCCCCCCCCC(=O)c1ccc(COP(=O)(OCc2ccc(OC(=O)CCCCCC)cc2)OP(=O)(O)OP(=O)(O)OC[C@@H]2C=C[C@H](n3cc(C)c(=O)[nH]c3=O)O2)cc1 (stereo partly drawn) , if possible.
Completion: 6.9

----------
- method description: Stability in human CEM/0 cell extract assessed as parent compound remaining up to 98 hrs by HPLC analysis
- Format: ADME, tissue-based, CCRF-CEM
- condition: read-out: Stabilty
metric: remaining at 98 h (%)
Use % as the unit, but write only the number.

Prompt: Consider the compound CCCCCCCCCC(=O)c1ccc(COP(=O)(O)OP(=O)(O)OP(=O)(O)OC[C@H]2O[C@@H](n3cc(C)c(=O)[nH]c3=O)C[C@@H]2O)cc1 and give its measured remaining at 98 h.
Completion: 98

----------
Would you mind telling me the reported CC50 of each entry?
- method description: Cytotoxicity against human CEM/0 CD4+ T cells assessed as reduction in cell viability
- Assay type: cell-based, CCRF-CEM
Supply the numeric figure in µM, leaving out any unit text.

Prompt: Request the reported CC50 associated with CCCCCCCCCCCCCCCCCC(=O)Oc1ccc(COP(=O)(OCc2ccc(C(=O)CCCCCCCCC)cc2)OP(=O)(O)OP(=O)(O)OC[C@@H]2C=C[C@H](n3cc(C)c(=O)[nH]c3=O)O2)cc1 (stereo not given in full)
Completion: 35

Prompt: Likewise for CCCCCCCCCCCCCCCCCC(=O)Oc1ccc(COP(=O)(OCc2ccc(C(=O)CCCCCCCCCCCCCCCCC)cc2)OP(=O)(O)OP(=O)(O)OC[C@@H]2C=C[C@H](n3cc(C)c(=O)[nH]c3=O)O2)cc1 (stereo not given in full) ?
Completion: 28

Prompt: Item: CCCCCCCCCCCCCCCCCC(=O)Oc1ccc(COP(=O)(OCc2ccc(OC(=O)CCCC)cc2)OP(=O)(O)OP(=O)(O)OC[C@@H]2C=C[C@H](n3cc(C)c(=O)[nH]c3=O)O2)cc1 (stereo not given in full)
Completion: 33

Prompt: Similarly, CCCCCCCCC(=O)Oc1ccc(COP(=O)(OCc2ccc(OC(=O)CCCCCCCC)cc2)OP(=O)(O)OP(=O)(O)OC[C@@H]2C=C[C@H](n3cc(C)c(=O)[nH]c3=O)O2)cc1 ?
Completion: 52

Prompt: Record: CCCCCCCCCCCCCCCCCC(=O)c1ccc(COP(=O)(OCc2ccc(OC(=O)CCCCCC)cc2)OP(=O)(O)OP(=O)(O)OC[C@@H]2C=C[C@H](n3cc(C)c(=O)[nH]c3=O)O2)cc1 (stereo not given in full)
Completion: 34

Prompt: // same read-out, input: CCCCCCCCCC(=O)c1ccc(COP(=O)(O)OP(=O)(O)OP(=O)(O)OC[C@H]2O[C@@H](n3cc(C)c(=O)[nH]c3=O)C[C@@H]2O)cc1
Completion: 10

Prompt: Here is the next molecule: CCCCCCCCCCCCCCCCCC(=O)c1ccc(COP(=O)(O)OP(=O)(O)OP(=O)(O)OC[C@@H]2C=C[C@H](n3cc(C)c(=O)[nH]c3=O)O2)cc1
Completion: 13

Prompt: What do you have for CCCCCCCCCC(=O)c1ccc(COP(=O)(OCc2ccc(OC(=O)CCCC)cc2)OP(=O)(O)OP(=O)(O)OC[C@@H]2C=C[C@H](n3cc(C)c(=O)[nH]c3=O)O2)cc1 (stereo not given in full) ?
Completion: 25

Prompt: Queued: CCCCCCCCCC(=O)c1ccc(COP(=O)(O)OP(=O)(O)OP(=O)(O)OC[C@H]2O[C@@H](n3cnc4c(N)ncnc43)C[C@@H]2O)cc1
Completion: 74
